// provenance: ChEMBL document CHEMBL1133060

# ASSAYED SYSTEM: GABA-A receptor; alpha-2/beta-3/gamma-2 (Homo sapiens, UniProt P18507+P28472+P47869)
# ASSAY OVERVIEW: Binding affinity evaluated by ability to displace [3H]-Ro-15-1788 from recombinant human Gamma-aminobutyric acid A receptor alpha-2-beta-3-gamma-2 expressed in L(tk-)cells
Parameter log10 Ki: see the listing below.
OUTCOME MEASURE: log10 Ki (log10 of the value in nM)

- COMPOUND: "O=C(C(=O)N1CCc2ccccc2C1)c1c[nH]c2ccccc12"
  log10 Ki: 2.83
- COMPOUND: "CCOC(=O)[C@@H]1C[C@H](C(=O)OCC)CN(C(=O)C(=O)c2c[nH]c3ccccc23)C1"
  log10 Ki: 1.34
- COMPOUND: "CCOC(=O)CC1CCCN1C(=O)C(=O)c1c[nH]c2c(OC)cccc12 (stereo not given)"
  log10 Ki: 2.43
- COMPOUND: "O=C(C(=O)N1Cc2ccccc2C1)c1c[nH]c2ccccc12"
  log10 Ki: 3.11
- COMPOUND: "O=C(C(=O)N1CCCC1Cc1ccccc1)c1c[nH]c2ccccc12 (stereo not given)"
  log10 Ki: 2.92

----------
# ASSAYED SYSTEM: GABA-A receptor; alpha-3/beta-3/gamma-2 (Homo sapiens, UniProt P18507+P28472+P34903)
# Sequence (P18507 whole entry): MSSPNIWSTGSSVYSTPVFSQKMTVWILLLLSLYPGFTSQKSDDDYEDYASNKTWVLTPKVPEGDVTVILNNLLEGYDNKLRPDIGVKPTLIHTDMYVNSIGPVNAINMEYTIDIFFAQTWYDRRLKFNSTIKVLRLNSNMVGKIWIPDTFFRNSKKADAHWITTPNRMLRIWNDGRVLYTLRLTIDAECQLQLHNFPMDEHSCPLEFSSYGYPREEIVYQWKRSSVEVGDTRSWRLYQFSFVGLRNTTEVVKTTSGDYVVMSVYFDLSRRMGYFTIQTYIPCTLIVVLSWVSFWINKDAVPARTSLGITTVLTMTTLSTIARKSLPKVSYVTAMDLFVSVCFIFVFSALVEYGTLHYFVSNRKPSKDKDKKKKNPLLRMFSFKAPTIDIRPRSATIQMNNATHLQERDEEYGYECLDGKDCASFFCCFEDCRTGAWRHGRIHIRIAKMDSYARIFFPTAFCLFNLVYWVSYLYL
# Sequence (P28472 whole entry): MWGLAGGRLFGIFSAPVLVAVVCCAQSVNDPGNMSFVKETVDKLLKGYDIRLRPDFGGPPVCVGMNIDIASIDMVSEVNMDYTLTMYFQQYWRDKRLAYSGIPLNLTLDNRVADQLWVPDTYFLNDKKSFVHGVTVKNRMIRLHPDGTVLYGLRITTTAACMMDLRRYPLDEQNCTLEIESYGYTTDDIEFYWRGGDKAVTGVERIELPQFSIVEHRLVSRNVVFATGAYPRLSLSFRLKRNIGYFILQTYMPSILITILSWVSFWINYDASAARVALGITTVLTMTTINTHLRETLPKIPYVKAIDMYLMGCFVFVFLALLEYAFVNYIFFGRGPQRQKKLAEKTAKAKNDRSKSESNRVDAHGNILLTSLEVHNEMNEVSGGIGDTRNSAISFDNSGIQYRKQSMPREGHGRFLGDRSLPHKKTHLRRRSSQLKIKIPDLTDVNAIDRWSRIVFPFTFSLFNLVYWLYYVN
# Sequence (P34903 whole entry): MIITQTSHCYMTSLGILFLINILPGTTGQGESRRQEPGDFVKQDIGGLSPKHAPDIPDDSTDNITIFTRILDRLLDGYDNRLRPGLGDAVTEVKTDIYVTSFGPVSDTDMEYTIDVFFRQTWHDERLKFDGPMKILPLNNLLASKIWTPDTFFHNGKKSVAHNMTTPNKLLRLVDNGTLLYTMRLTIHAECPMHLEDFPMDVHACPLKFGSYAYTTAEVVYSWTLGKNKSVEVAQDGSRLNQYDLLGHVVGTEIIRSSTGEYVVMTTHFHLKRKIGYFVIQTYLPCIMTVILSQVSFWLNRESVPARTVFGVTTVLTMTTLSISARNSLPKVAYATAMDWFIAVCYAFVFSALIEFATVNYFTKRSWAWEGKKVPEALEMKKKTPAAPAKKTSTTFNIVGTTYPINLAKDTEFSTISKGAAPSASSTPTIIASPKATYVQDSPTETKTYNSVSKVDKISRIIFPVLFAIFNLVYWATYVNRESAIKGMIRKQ
# ASSAY OVERVIEW: Binding affinity evaluated by ability to displace [3H]Ro-151788 from recombinant human Gamma-aminobutyric acid A receptor alpha-3-beta-3-gamma-2 expressed in L(tk-)cells
Output satisfied for records whose Ki is lower than 700 nM, not satisfied for records at or above 700 nM.

- COMPOUND: "O=C(C(=O)N1Cc2ccccc2C1)c1c[nH]c2ccccc12"
  CLASS LABEL: "not satisfied"
- COMPOUND: "O=C(C(=O)N1CCCC(C(=O)OCc2ccccc2)C1)c1c[nH]c2ccccc12 (centres undefined)"
  CLASS LABEL: "satisfied"
- COMPOUND: "CCOC(=O)CC1CCCN1C(=O)C(=O)c1c[nH]c2ccccc12 (centres undefined)"
  CLASS LABEL: "satisfied"
- COMPOUND: "CN(Cc1ccccc1)C(=O)C1CCCN(C(=O)C(=O)c2c[nH]c3ccccc23)C1 (centres undefined)"
  CLASS LABEL: "satisfied"
- COMPOUND: "CCOC(=O)CC1CCCN1C(=O)C(=O)c1c[nH]c2c(OC)cccc12 (centres undefined)"
  CLASS LABEL: "satisfied"
- COMPOUND: "CCOC(=O)[C@@H]1C[C@H](C(=O)OCC)CN(C(=O)C(=O)c2c[nH]c3ccccc23)C1"
  CLASS LABEL: "satisfied"
- COMPOUND: "O=C(C(=O)N1CCCC(C(=O)NCc2ccccc2)C1)c1c[nH]c2ccccc12 (centres undefined)"
  CLASS LABEL: "not satisfied"
- COMPOUND: "CCOC(=O)C1CCCN(C(=O)C(=O)c2c[nH]c3ccccc23)C1 (centres undefined)"
  CLASS LABEL: "not satisfied"
- COMPOUND: "CCOC(=O)[C@@H]1C[C@@H](C(=O)OCC)CN(C(=O)C(=O)c2c[nH]c3ccccc23)C1"
  CLASS LABEL: "satisfied"
- COMPOUND: "CN(Cc1ccccc1)C(=O)[C@@H]1CCCN(C(=O)C(=O)c2c[nH]c3ccccc23)C1"
  CLASS LABEL: "satisfied"
- COMPOUND: "CCOC(=O)CC1CCCN1C(=O)C(=O)c1c[nH]c2c(C)cccc12 (centres undefined)"
  CLASS LABEL: "satisfied"
- COMPOUND: "O=C(C(=O)N1CCCC1Cc1ccccc1)c1c[nH]c2ccccc12 (centres undefined)"
  CLASS LABEL: "not satisfied"
- COMPOUND: "CN(Cc1ccccc1)C(=O)[C@H]1CCCN(C(=O)C(=O)c2c[nH]c3ccccc23)C1"
  CLASS LABEL: "satisfied"
